Target: human V1a receptor (Homo sapiens)
Experiment: Cellular in vitro assay for determining vasopressin receptor activity, V1a receptor cell line (photoprotein luminescence)
Assay type: cell-based
Conditions: selectivity ratio of the cellular IC50 values
RECORDED_METRIC: ratio IC50 hV2/hV1a

Below: 4 compounds and their reported ratio IC50 hV2/hV1a.
COMPOUND	ratio IC50 hV2/hV1a
O=c1n(Cc2nc(NCC3(O)CCNCC3)n(-c3ccccc3Cl)n2)nc(-c2ccc(Cl)cc2)n1C[C@H](O)C(F)(F)F [Example 22]	26.1
O=C1CC[C@@H](CNc2nc(Cn3nc(-c4ccc(Cl)cc4)n(C[C@H](O)C(F)(F)F)c3=O)nn2CCC(F)(F)F)N1 [Example 109]	41.0
O=c1n(Cc2nc(N3CCS(=O)(=O)CC3)n(CCC(F)(F)F)n2)nc(-c2ccc(Cl)cc2)n1C[C@H](O)C(F)(F)F [Example 100]	11.5
O=c1n(Cc2nc(N3CCOC(C(F)(F)F)C3)n(CCC(F)(F)F)n2)nc(-c2ccc(Cl)cc2)n1C[C@H](O)C(F)(F)F (single isomer, unassigned) [Example 105]	8.2

a. O=c1n(Cc2nc(N3CC(F)(F)C3)n(-c3ccccc3Cl)n2)nc(-c2ccc(Cl)cc2)n1C[C@H](O)C(F)(F)F [Example 81]
b. O=c1n(Cc2nc(NCC3(O)CCCNCC3)n(-c3ccccc3Cl)n2)nc(-c2ccc(Cl)cc2)n1C[C@H](O)C(F)(F)F (mixture of isomers) [Example 20]
// select label with min value of measured ratio IC50 hV2/hV1a from [ a , b ] Refer to your chosen entry by its label in the reply.
a
(a: 11.0, b: 28.6)

====

Target: human V1a receptor (Homo sapiens, UniProt P37288)
Sequence (P37288 whole entry): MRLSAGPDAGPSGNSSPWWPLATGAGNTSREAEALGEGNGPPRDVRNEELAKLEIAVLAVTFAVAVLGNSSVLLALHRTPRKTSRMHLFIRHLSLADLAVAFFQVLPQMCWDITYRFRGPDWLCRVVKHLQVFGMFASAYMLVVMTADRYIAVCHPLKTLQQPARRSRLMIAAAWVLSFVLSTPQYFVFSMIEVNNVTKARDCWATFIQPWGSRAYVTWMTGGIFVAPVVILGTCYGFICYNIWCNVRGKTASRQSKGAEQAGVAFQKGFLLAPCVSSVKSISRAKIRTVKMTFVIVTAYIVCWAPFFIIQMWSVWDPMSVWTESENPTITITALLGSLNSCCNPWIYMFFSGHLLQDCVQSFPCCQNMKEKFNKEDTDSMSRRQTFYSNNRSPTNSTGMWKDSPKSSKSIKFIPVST
Experiment: Cellular in vitro assay for determining vasopressin receptor activity, V1a receptor cell line (photoprotein luminescence)
Conditions: CHO cell line transfected with the human V1a receptor; agonist [Arg8]-vasopressin at EC50 concentration; read-out: IC50 hV1a
pIC50: −log10 of the molar value.
RECORDED_METRIC: pIC50

                                   compound  recorded_metric  endpoint_result
0  CS(=O)(=O)CCNc1nc(Cn2nc(-c3ccc(Cl)cc3)n(C[C@H](O)C(F)(F)F)c2=O)nn1-c1ccccc1Cl            pIC50             9.15
1  O=C1CCC(CNc2nc(Cn3nc(-c4ccc(Cl)cc4)n(C[C@H](O)C(F)(F)F)c3=O)nn2-c2ccccc2Cl)N1 (single isomer, unassigned) [Example 65]            pIC50             9.20
2  CS(=O)(=O)C1CN(c2nc(Cn3nc(-c4ccc(Cl)cc4)n(C[C@H](O)C(F)(F)F)c3=O)nn2-c2ccccc2Cl)C1            pIC50             9.37
3  O=c1n(Cc2nc(NCCN3CCCCS3(=O)=O)n(-c3ccccc3Cl)n2)nc(-c2ccc(Cl)cc2)n1C[C@H](O)C(F)(F)F            pIC50             9.37

====

Biological target: human V1a receptor (Homo sapiens, UniProt P37288)
Assay: Cellular in vitro assay for determining vasopressin receptor activity, V1a receptor cell line (photoprotein luminescence)
Format: cell-based
Settings: selectivity ratio of the cellular IC50 values
Method: B-1. Cellular In Vitro Assay for Determining Vasopressin Receptor Activity The identification of agonists and antagonists of the V1a and V2 vasopressin receptors from humans, rats and dogs as well as the quantification of the activity of the compounds of the invention is carried out using recombinant cell lines. […] The bioluminescence of the cell lines is detected using a suitable luminometer [Milligan G, Marshall F, Rees S, Trends in Pharmacological Sciences 17, 235-237 (1996)]. […]
RECORDED_METRIC: ratio IC50 hV2/hV1a

Below: 2 compounds and their reported ratio IC50 hV2/hV1a.
COMPOUND	ratio IC50 hV2/hV1a
O=c1n(Cc2nc(NCC(O)C(F)(F)F)n(-c3ccccc3Cl)n2)nc(-c2ccc(Cl)cc2)n1C[C@H](O)C(F)(F)F (mixture of isomers)	3.6
O=c1n(Cc2nc(N3CCS(=O)(=O)CC3)n(-c3ccccc3F)n2)nc(-c2ccc(Cl)cc2)n1C[C@H](O)C(F)(F)F	28.1

1. O=c1n(Cc2nc(N3CCC(O)(C(F)(F)F)C3)n(-c3ccccc3Cl)n2)nc(-c2ccc(Cl)cc2)n1C[C@H](O)C(F)(F)F (single isomer, unassigned) [Example 15]
2. CC1(C)CN(c2nc(Cn3nc(-c4ccc(Cl)cc4)n(C[C@H](O)C(F)(F)F)c3=O)nn2-c2ccccc2Cl)CCN1
Rank 1 against 2 by their ratio IC50 hV2/hV1a values and give the higher one. Refer to your chosen entry by its label in the reply.
2

P. CC(C)(C)CNc1nc(Cn2nc(-c3ccc(Cl)cc3)n(C[C@H](O)C(F)(F)F)c2=O)nn1-c1ccccc1Cl
Q. CC(N)(CNc1nc(Cn2nc(-c3ccc(Cl)cc3)n(C[C@H](O)C(F)(F)F)c2=O)nn1-c1ccccc1Cl)C(F)(F)F (mixture of isomers)
R. CC1(O)CCN(c2nc(Cn3nc(-c4ccc(Cl)cc4)n(C[C@H](O)C(F)(F)F)c3=O)nn2-c2ccccc2Cl)C1 (single isomer, unassigned) [Example 31]
S. O=c1n(Cc2nc(N3CCC(F)(F)CC3)n(-c3ccccc3Cl)n2)nc(-c2ccc(Cl)cc2)n1C[C@H](O)C(F)(F)F
Endpoint returns the given compounds ordered by ascending ratio IC50 hV2/hV1a. // rank by listing labels in the order requested
P, Q, R, S
(P: 2.5, Q: 3.7, R: 7.7, S: 19.0)

A. CS(=O)(=O)C1CN(c2nc(Cn3nc(-c4ccc(Cl)cc4)n(C[C@H](O)C(F)(F)F)c3=O)nn2-c2ccccc2Cl)C1
B. O=c1n(Cc2nc(NCCO)n(-c3ccccc3Cl)n2)nc(-c2ccc(Cl)cc2)n1C[C@H](O)C(F)(F)F
C. O=C1CCC(Nc2nc(Cn3nc(-c4ccc(Cl)cc4)n(C[C@H](O)C(F)(F)F)c3=O)nn2CCC(F)(F)F)CN1 (mixture of isomers)
D. O=c1n(Cc2nc(N3CCC(O)(C(F)(F)F)CC3)n(-c3ccccc3Cl)n2)nc(-c2ccc(Cl)cc2)n1C[C@H](O)C(F)(F)F
Order field: ratio IC50 hV2/hV1a | Direction: descending (largest first) // rank by listing labels in the order requested
C, D, B, A
(C: 34.5, D: 15.3, B: 7.8, A: 1.9)

Data origin: patent US11331314B2
